Consider the following compounds; for each one, report its growth inhibition.
- run.description: NCI Yeast Anticancer Drug Screen. Data for the mlh1 rad18 strain (AID 175)
- test.settings: S. cerevisiae mlh1 rad18 strain growth inhibition; at 50.0 µM; active compounds read high
- Description: Growth inhibition of yeast strains with defined genetic alterations is measured as a screen for potential anti-cancer activity. Selected strains with alterations in DNA damage repair or cell cycle control were exposed to compounds and growth inhibition was measured relative to vehicle treated controls. The strain used in this assay is mlh1 rad18
This is part of a sample that, as a whole, favours compounds with a hit. Of some 79,000 tested, about 15% had one in any assay.
Return type: number; implicit unit %.

Which growth inhibition value is on record for CCCCCCCCCCCCCCCc1ncc(C)[nH]1 ? 99

// lookup growth inhibition for CC(=O)Oc1cc(OC(C)=O)c2cc(Br)ccc2c1OC(C)=O 90.7

Param item = COc1cc(C(c2ccccc2)c2ccccc2)c2ccccc2c1O ; retrieve measured growth inhibition. 74

Fill in the blank: the reported growth inhibition of CCc1[nH]c2ccccc2c1C(c1c(CC)[nH]c2ccccc12)C1CCCCC1=O (centres undefined) is ____. 95.6

If you can, please state the reported growth inhibition value of Cc1ccccc1Oc1ccccc1N . 81.8

Any idea what growth inhibition was measured for O=S1(=O)c2ccccc2C(=NO)c2ccccc21 ? -3.55

Report growth inhibition for C/C(CC(O)(C(F)(F)F)C(F)(F)F)=N/Nc1ccc([N+](=O)[O-])cc1[N+](=O)[O-] please. 99.3

Field request: growth inhibition | item: CC(C)CCCC(C)C1CCC2C3C=CC4=CCCCC4(C)C3CCC12C (centres undefined) 98.1

Recorded growth inhibition of CN(NC(=O)c1cccs1)C1=NCCCN1 , please. -20.7

Request the reported growth inhibition associated with Brc1c2nc3ccccc3nc2n2ccc3ccccc3c12 59.5

Would you kindly share the measured growth inhibition for [N-]=[N+]=Nc1c([N+](=O)[O-])c(Cl)nc2ccccc12 ? 88.2

Field request: growth inhibition | item: Cc1cc2nc3n(c2cc1C)C(c1c(F)cccc1F)SC3 (centres undefined) -0.35

Fill in: growth inhibition of Cc1ccc(C)c(C2CCCCC2O)c1 (centres undefined) is ___ -16.1

Given the entry C=CC(C)(CCC=C(C)C)OC(=O)Nc1ccccc1 (centres undefined) , report its measured growth inhibition. -4.25

What does the data say about its growth inhibition? Entry: NC(=S)C(=Nc1ccccc1F)Nc1ccccc1F 66.2

Which growth inhibition value belongs to Oc1c(Cl)cc(Cl)cc1Br ? 88.1

Endpoint output: growth inhibition of C=C(c1ccc2nc(NC(=O)OC)[nH]c2c1)c1cccs1 . Value? 95

Item under review: CCNC(=S)N/N=C(/C)c1cccc(/C(C)=N\NC(=S)NCC)n1 . Reported growth inhibition? 37.7

Record request: growth inhibition value, item CC(C)[C@@H]1CC[C@@H](C)C[C@H]1OC(=O)NN 95.3

Item C1=NC2c3ccccc3Cc3cccc1c32 (centres undefined) has what recorded growth inhibition? 94.3

Look up growth inhibition: O=C(O)/C(=C\c1cc(I)c(O)c(I)c1)c1ccc(I)cc1 80.8

If you can, please state the reported growth inhibition value of C/C=C/C(=O)NCC(C(C)C)/[N+]([O-])=N/O (centres undefined) . 91.9

Give its growth inhibition value. Item: O=[N+]([O-])c1ccc2c(c1)[n+]([O-])c1[nH]c3ccccc3c1[n+]2[O-] (tested in a mixture with another compound) 86.3

Entry CCCCC#CCCOC(=O)C#CCCCC : reported growth inhibition = ? 3.25

Please report the recorded growth inhibition for Nc1ccc(-c2cccc(-c3ccccc3)c2)cc1 . 97.6

// lookup growth inhibition for CCCCCCCCCCCCCCCC[N+](C)(C)CCl 80.1

Request the reported growth inhibition associated with CCCCC(CC)COC(=O)c1cc2ccccc2oc1=O (centres undefined) 67.8

Which growth inhibition is reported for this compound? Cc1c(N=Nc2ccc(Br)cc2)c(-c2ccccc2)nn1C(=S)S 92.7

Which growth inhibition is listed for CN(C)CC/C(=N\Nc1ccc([N+](=O)[O-])cc1)c1ccccc1 ? 98.5

GET /values?readout=growth inhibition&item= C/C(=N\NC(=S)N1CCCCCC1)c1cccc2cccnc12 86.2

Which value of growth inhibition has been reported for O=C(O)COc1cc(Br)cc(Br)c1-c1ccccc1 in the records? 67.7

Request the reported growth inhibition associated with CN(C)c1ccc(N=Nc2ccc(/C=C3\CCOC3=O)cc2)cc1 12.4

Look up growth inhibition: Cc1ccc(-n2cc(-c3ccc(Cl)cc3)c3c(NN)ncnc32)cc1 76.6

Consider the compound shown here: CCc1ccccc1NC(=O)C(=O)C(C#N)c1c(Cl)cccc1Cl (centres undefined) What is its recorded growth inhibition? 14.7

Item NC(=O)c1c(Cl)nc2n1CCS2 has what recorded growth inhibition? 0.15

I'd like to know its growth inhibition. The compound in question is C=CC1(C)CCC2C(=CCC3C(C)(C(=O)O)CCCC23C)C1 (centres undefined) (tested in a mixture with another compound) 72

For the compound CCOC(=O)c1cc2c(nc1NCc1ccc(OC)c(OC)c1)/C(=C/c1ccccc1)CCCC2 , what growth inhibition is on record? 90.2

Any idea what its growth inhibition is? The compound is C/C(=N/NC(=S)Nc1cccc(C)c1)c1ccccn1 91

Consider the compound shown here: CC(C)NC(=O)O/N=C1\CCC2[C@@H]3CC=C4C[C@@H](OC(=O)NC(C)C)CC[C@]4(C)C3CC[C@]12C (some centres undefined) What is its recorded growth inhibition? 92

What growth inhibition value was documented for this compound, CCCOC1=C(Cl)C(=O)c2cccc([N+](=O)[O-])c2C1=O ? 99.1

Value lookup for growth inhibition; key = NC(N)=Nc1ccc(C(=O)Oc2c(Cl)cc([N+](=O)[O-])cc2Cl)cc1 32.9

Give its growth inhibition value. Item: O=c1[nH]cc(F)c(=O)n1C1CCCCO1 (centres undefined) 6.85

What does the record list as growth inhibition for FC(F)(F)c1ccccc1NC(=S)SCc1ccc2c(c1)OCO2 ? 99

Which growth inhibition is reported for this compound? Cn1c(=NCCc2ccccc2)oc2ccc(Cl)cc21 18.6
